# System: KM-20L2
# experiment.description: NCI tumour cell line growth inhibition, 48 h
Activity calls are given as the source filed them. No stated cut-off is given here; in the data, active = GI50 up to about 1.1 µM and inactive = higher.
Labels: active, inactive

compound | cat
O=c1c2cc(Cl)ccc2n2nnc3ccc(NCCNCCO)c1c32 | active
Cc1c(C(=O)/C=C/c2ccc(Cl)cc2)[n+]([O-])c2ccccc2[n+]1[O-] | inactive
CC1(C)Cc2nnsc2C2=C1C(=O)CCS2 | inactive
O=c1[nH]cc(COCCCO)c(=O)[nH]1 | inactive
CCOc1ccc2c(c1)[n+]([O-])c(-c1ccc(Cl)cc1)c(N)[n+]2[O-] | inactive
Nc1ccc(C(=O)N/C(=C\c2ccc3c(c2)OCO3)c2nc3ccccc3s2)cc1 | inactive
COc1cc(/C=C/c2ccc(OC)c(O)c2)cc(OC)c1 | inactive
O=P(c1ccccc1)(c1ccccc1)C1CC=C2CCCCCC2C1 (centres undefined) | inactive
O=C(CCc1nnc(S)[nH]1)NC12CC3CC(CC(C3)C1)C2 | inactive
CN(C)C(=S)/N=c1\ssc(=S)n1Cc1ccncc1 | inactive
NNC(=O)CCC(=O)NC1C2CC3CC(C2)CC1C3 (centres undefined) | inactive
COC1=CC(=O)c2c(c(O)c3oc4cc(OC)cc(C)c4c(=O)c3c2O)C1=O | inactive
COc1ccc(-n2cnnc2-c2nsc3ccccc23)cc1 | inactive
O=c1sc2ccccc2n1CC1CS1 (centres undefined) | inactive
C=C1COC(O)(C2OCOC(C3CC(=O)NC(=O)C3)C2O)C1C (centres undefined) | active
O=C(c1ccccc1)C1(Br)S(=O)(=O)OCCOS1(=O)=O | inactive
CC1=C(C(=O)CC(=O)C(=O)Nc2ccccc2C)Sc2ccccc2N1 | inactive
OC1OCC(COc2cc(Cl)c(Cl)cc2Cl)OC1O (centres undefined) | inactive
CC(C)(CN1CCCCC1)C(=O)/C=C/c1ccc(/C=C/C(=O)C(C)(C)CN2CCCCC2)cc1 | active
CC1=C(c2nc3ccccc3s2)C(=O)OC1(C)C | inactive
CCCCc1c2c([n+]([O-])c3c1CCCC3)CCCC2 | inactive
O=C(CCc1nnc(S)[nH]1)Nc1ccccc1Cl | inactive
COc1ccc2nc3ccccc3c(NCCN(C)CCCl)c2c1 | active
O=C(O)CCCCCOc1cccnc1/C=N/NC1=NCCN1 | inactive

----------
# Test system: HT-29
# experiment.description: NCI tumour cell line growth inhibition, 48 h
Calls of active or inactive are those of the source. No stated cut-off is given here; in the data, active = GI50 up to about 1.1 µM and inactive = higher.
Overview of recorded GI50 for various compounds

compound | GI50
Clc1ccc(Nc2ncco2)cc1Cl | > 10 µM (inactive)
C[C@@]1(O)CC[C@]2(C)C3CCCC3[C@H]12 (some centres not stated) | > 100 µM (inactive)
O=C1c2[nH]c3ccc(Br)cc3c2CCN1Cc1ccc(Cl)cc1 | > 100 µM (inactive)
CCOc1ccc2c(c1)[n+]([O-])c(-c1ccc(Cl)cc1)c(N)[n+]2[O-] | > 100 µM (inactive)
CCOc1ccc(/N=C/c2ccnc3ccccc23)cc1 | 27.3 µM (inactive)
O=[N+]([O-])c1ccc2nc(/C(=N/Nc3ccccc3)C(O)c3ccc(C(O)/C(=N\Nc4ccccc4)c4nc5ccc([N+](=O)[O-])cc5nc4O)cc3)cnc2c1 (configuration not stated) | > 100 µM (inactive)
Cc1c(C(=O)/C=C/c2ccc(Cl)cc2)[n+]([O-])c2ccccc2[n+]1[O-] | 12.9 µM (inactive)
CN(NC1=NCCO1)c1ccc2ccccc2c1 | 41.1 µM (inactive)
CN(C)c1n/c(=N/Cc2ccco2)ss1 | 2.44 µM (inactive)
O=C(O)CCSc1nnc(COc2ccc(Cl)cc2)n1-c1ccccc1 | > 100 µM (inactive)
CC(C)C1C(=O)N2CCCC2C2(O)OC(NC(=O)C3C=C4c5cccc6[nH]cc(c56)CC4N(C)C3)(C(C)C)C(=O)N12 (configuration not stated) | 18 µM (inactive)
CC(C)=NN/C(=N\c1ccc(Cl)cc1)NS(=O)(=O)c1ccc(Oc2cccc(Cl)c2C#N)cc1 | > 100 µM (inactive)
N#CC12CC=C(c3ccccc3)N=C1NC(c1ccccc1)=CC2 (configuration not stated) | 57.3 µM (inactive)
N#Cc1c(C[n+]2ccccc2)c2ccccc2oc1=O | > 100 µM (inactive)
COC(=O)C1(C)CCC(c2ccc(C)cc2)=C(CC(=O)O)C1 (configuration not stated) | > 100 µM (inactive)
CCc1n[nH]c(=O)n1N1C(=O)C2CC=CCC2C1=O (configuration not stated) | > 100 µM (inactive)
C[C@@]12C[C@@H](c3ccccc3O1)N1CCCSC1=N2 | > 100 µM (inactive)
O=C1Oc2ccccc2C(=O)/C1=C/N1C(=O)/C(=C/c2ccc3c(c2)OCO3)SC1=S | 21.2 µM (inactive)
Clc1ccccc1-c1nc(-c2ccncc2)no1 [PIFEXOLE] | 66.1 µM (inactive)
COC(=O)C(=O)C(C#N)c1ccc(CC#N)cc1 (configuration not stated) | > 100 µM (inactive)
O=C(O)COc1cc(-c2ccccc2F)nc2cc3c(cc12)OCO3 | > 100 µM (inactive)
N=C(N)N/N=C/c1c(Cl)nc2n1CCS2 | 38 µM (inactive)

----------
# System: UO-31
# experiment.description: NCI tumour cell line growth inhibition, 48 h
Calls of active or inactive are those of the source. Rule as the data show it: active = GI50 up to about 1.1 µM and inactive = higher.
Labels: TRUE for active, FALSE for inactive

molecule | cat
Cc1cccc2c(N)c3cccc(C(=O)NCCCNCCN)c3nc12 | FALSE
CC12CCC(C(=O)n3c1nc1ccccc13)C(C)(C)O2 (configuration not stated) | FALSE
O=C1c2ccccc2C(=O)c2c1oc(=O)c1ccccc21 | FALSE
CC[C@H]1C=CCC[C@@]2(C[C@@H]3CC[C@@H]4[C@H](C(=O)OCCCCCCCCCCCCCCCC(=O)N(CCCN)C[C@@H](O)CCN)[C@]5(CCC[C@@H](C)O5)NC(=[N+]34)N2)O1 | TRUE
CCN(CC)c1ccc(/C=c2\nc(-c3ccccc3)n3c2nc2ccccc23)cc1 | FALSE
CC1=C(/C=C/C(C)=C/C=C/C(C)=C/C(=O)OC2CC(n3cc(F)c(=O)[nH]c3=O)OC2CO)C(C)(C)CCC1 (configuration not stated) | TRUE
CCOC(=O)c1cn(-c2ccc(Cl)cc2)c(=O)n2c1nc1ccccc12 | FALSE
CC1CC2C(=O)N(c3ccccc3)C(=O)C2c2c1c1ccccc1n2Cc1ccccc1 (configuration not stated) | FALSE
COC(CNC(=O)C(C)NC(=O)CCc1ccccc1)OC (configuration not stated) | FALSE
CC(=O)OCC1OC(OC2CC3C(C)(C)C(OC(C)=O)CC[C@]3(C)C3CCC45CC4(CC[C@H]5C(C)CC(O)[C@@H](O)C(C)(C)O)[C@]23C)C(O)C(O)C1O (some centres not stated) | FALSE
C=C(c1nc2ccc(Cl)cc2[nH]c1=O)C(O)c1ccc(C(O)C(=O)c2nc3ccc(Cl)cc3[nH]c2=O)cc1 (configuration not stated) | FALSE
CN(NC1=NCCO1)c1ccc2ccccc2c1 | FALSE
CCCCCCN(CCCCCC)CCC(=O)c1ccc2cc(Br)c3ccccc3c2c1 | FALSE
C/C(=N\NC(=O)CC#N)C(CN1CCCCC1)C(c1ccccc1)c1c(O)c2ccccc2oc1=O (configuration not stated) | FALSE
COc1ccc(/C=C2\c3cc(OC)c(OC)cc3CCN2C(=O)c2ccccc2)cc1OC | FALSE
COc1ccc2c(c1)[C@@]13CCCC[C@H]1[C@@H](C2)N(C)CC3=O | FALSE
CN(C)/C=C/c1c2c(nc3ccccc13)C(=O)c1ccccc1C2=O | FALSE

----------
# Tested on: HOP-62
# experiment.description: NCI tumour cell line growth inhibition, 48 h
Activity calls are given as the source filed them. No stated cut-off is given here; in the data, active = GI50 up to about 1.1 µM and inactive = higher.
Labels: active, inactive

compound | cat
CN1C(=O)c2c(c3c4ccccc4n(C4OC(CO)C(O)C(O)C4O)c3c3[nH]c4ccccc4c23)C1=O (configuration not stated) | inactive
CN(C)CCCn1c2ccccc2c2cnccc21 | inactive
CSc1ccc(C=C2N=C(c3ccccc3)N(c3cc(C(=O)c4ccccc4)ccc3N3C(=O)/C(=C/c4ccc(SC)cc4)N=C3c3ccccc3)C2=O)cc1 | inactive
CCOC(=O)CC[C@H](NC(=O)c1nc[nH]c1[N+](=O)[O-])C(=O)OCC | inactive
COc1cc2oc(-c3ccc(O)cc3)cc(=O)c2c(OC)c1O | inactive
COC(=O)[C@]1(C)[C@H]2C[C@H]3O[C@H]4[C@H](O)[C@@H](O)OC(CC(O)C(C5=CC(=O)OC5)C(C5=CC(=O)OC5)C(O)CC56CCCCC7[C@@H](C)[C@H](C[C@H]8[C@](C)(C(=O)OC)[C@H](O)CC[C@]78C)O[C@H]([C@@H](O)[C@H](O)O5)[C@H]6O)(CCCCC([C@@H]3C)[C@]2(C)CC[C@@H]1O)[C@H]4O (some centres not stated) | active
O=C1CC(c2cccc([N+](=O)[O-])c2)C2(C(=O)NC(=O)NC2=O)C(c2cccc([N+](=O)[O-])c2)C1 (configuration not stated) | inactive
